B1: F-BAR and double SH3 domains protein 1, residues 467 to 528; numbered along this chain, Q86WN1 (parent)
chain: RALPCPAHVVFRYQAGREDELTITEGEWLEVIEEGDADEWVKARNQHGEVGFVPERYLNFPD

# Variants of: B1
# TEST_NAME: abundance fitness (aPCA) (normalised: wild type 0, dead -1); higher = more abundant; growth selection in yeast, the domain comes from the species named
# TEST_CONTEXT: Homo sapiens
PARAMETER: abundance fitness

Worked examples follow.
[[record]]
mutant_code = "R17I"
readout_value = -0.557

[[record]]
mutant_code = "E27S"
readout_value = -1.01

[[record]]
mutant_code = "E27V"
readout_value = -0.81


API: the following record is the query input.
What value of measured abundance fitness is listed for R12V ? -0.367
